- Measurement Protocol: Cytotoxicity against human RKOp27IND cells after 48 hrs by XTT assay
- Format: functional, cell-based

Smiles Structure	EC50
CN(C)CCn1ccc2c1C(=O)c1cncnc1C2=O	0.377 µg/mL
CN(C)CCCn1ccc2c1C(=O)c1ccncc1C2=O	3 µg/mL
CN(C)CCn1ccc2c1C(=O)c1nccnc1C2=O	2.97 µg/mL
CN(C)CCCn1ccc2c1C(=O)c1cncnc1C2=O	0.44 µg/mL
CN(C)CCn1ccc2c1C(=O)c1ccncc1C2=O	3 µg/mL

* * *

Examples of compounds with documented EC50 follow.
- Tested on: SK-OV-3
- Measurement Protocol: Cytotoxicity against human SKOV3 cells after 48 hrs by XTT assay
- Format: functional, cell-based
- Condition Info: SK-OV-3, 48 h
Recorded Endpoint: EC50 (µg/mL)

Smiles Structure	Result Unit	Recorded Value
CN(C)CCCn1ccc2c1C(=O)c1ccncc1C2=O	µg/mL	3
CN(C)CCn1ccc2c1C(=O)c1nccnc1C2=O	µg/mL	3
CN(C)CCn1ccc2c1C(=O)c1cncnc1C2=O	µg/mL	0.239
CN(C)CCn1ccc2c1C(=O)c1ccncc1C2=O	µg/mL	3
CN(C)CCCn1ccc2c1C(=O)c1cncnc1C2=O	µg/mL	0.452
